Data origin: ChEMBL document CHEMBL4052686

Entries and their measured log10 of MIC follow.
# Tested on: Staphylococcus aureus
# measurementProtocol: Antibacterial activity against penicillin-resistant Staphylococcus aureus clinical isolates incubated for 24 hrs by tube-dilution method
# Format: functional
property: log10 of MIC (log10 of the value in µg/mL)

smilesInput | log10 of MIC
C[n+]1cc2ccccc2c2cc(C(C)(C)C)ccc21.[Cl-] | 1.20
Cc1cccc2c3ccccc3c[n+](C)c12.[Cl-] | 0.60
COc1ccc2c(c1)c1ccccc1c[n+]2C.[Cl-] | 0.90
C[n+]1cc2ccccc2c2ccccc21.[Cl-] | 1.51
C[n+]1cc2ccccc2c2cc(C(F)(F)F)ccc21.[Cl-] | 2.11
Cc1cc(C)c2c(c1)c1ccccc1c[n+]2C.[Cl-] | 0.60
C[n+]1cc2ccccc2c2cc(Cl)ccc21.[Cl-] | 1.51
COc1cccc2c3ccccc3c[n+](C)c12.[Cl-] | 1.20

====

# System: Staphylococcus aureus
# measurementProtocol: Antibacterial activity against penicillin-resistant Staphylococcus aureus clinical isolates incubated for 24 hrs by tube-dilution method
# Type: functional
MIC under 8 µg/mL gets True, anything at or over 8 µg/mL gets False.

smilesInput | measurementTarget | group
CC(C)c1cccc2c3ccccc3c[n+](C)c12.[Cl-] | Staphylococcus aureus | False
COc1cc(OC)c2c(c1)c1ccccc1c[n+]2C.[Cl-] | Staphylococcus aureus | True
Cc1ccc2c(c1)c1ccccc1c[n+]2C.[Cl-] | Staphylococcus aureus | True
C[n+]1cc2ccccc2c2cc(F)ccc21.[Cl-] | Staphylococcus aureus | False
CSc1ccc2c(c1)c1ccccc1c[n+]2C.[Cl-] | Staphylococcus aureus | False
C[n+]1cc2ccccc2c2cc(OC(F)(F)F)ccc21.[Cl-] | Staphylococcus aureus | False
C[n+]1cc2c3c(ccc2c2ccc4cc5c(cc4c21)OCO5)OCO3 | Staphylococcus aureus | True
Cc1onc(-c2ccccc2)c1C(=O)N[C@@H]1C(=O)N2[C@@H]1SC(C)(C)[C@@H]2C(=O)[O-].[Na+] | Staphylococcus aureus | False

====

# Test system: Escherichia coli
# measurementProtocol: Inhibition of FtsZ in penicillin-susceptible Escherichia coli ATCC 25922 assessed as lowest drug concentration causing inhibition of cell division incubated for 5 hrs by phase-contrast light microscopy

smilesInput | MIC
C[n+]1cc2c3c(ccc2c2ccc4cc5c(cc4c21)OCO5)OCO3 | > 128 µg/mL
CCCCc1ccc2c(c1)c1ccccc1c[n+]2C.[Cl-] | 128 µg/mL
Cc1ccc2c(c1)c1ccccc1c[n+]2C.[Cl-] | > 128 µg/mL
CSc1ccc2c(c1)c1ccccc1c[n+]2C.[Cl-] | 128 µg/mL
CC(C)c1cccc2c3ccccc3c[n+](C)c12.[Cl-] | > 128 µg/mL
C[n+]1cc2ccccc2c2cc(Cl)ccc21.[Cl-] | 128 µg/mL
C[n+]1cc2ccccc2c2cc(F)ccc21.[Cl-] | > 128 µg/mL
CSc1cccc2c3ccccc3c[n+](C)c12.[Cl-] | 128 µg/mL
COc1cccc2c3ccccc3c[n+](C)c12.[Cl-] | > 128 µg/mL
COc1cc(OC)c2c(c1)c1ccccc1c[n+]2C.[Cl-] | > 128 µg/mL
C[n+]1cc2ccccc2c2cc(C(F)(F)F)ccc21.[Cl-] | > 128 µg/mL
Cc1cccc2c3ccccc3c[n+](C)c12.[Cl-] | > 128 µg/mL
C[n+]1cc2ccccc2c2cccc(OC(F)(F)F)c21.[Cl-] | > 128 µg/mL
COc1ccc2c(c1)c1ccccc1c[n+]2C.[Cl-] | > 128 µg/mL
C[n+]1cc2ccccc2c2cc(OC(F)(F)F)ccc21.[Cl-] | > 128 µg/mL
C[n+]1cc2ccccc2c2cc(C(C)(C)C)ccc21.[Cl-] | 128 µg/mL
Cc1cc(C)c2c(c1)c1ccccc1c[n+]2C.[Cl-] | > 128 µg/mL
C[n+]1cc2ccccc2c2ccccc21.[Cl-] | > 128 µg/mL
